Molecular target: T1, human PD-L2 (full-length, on cells) (human, UniProt Q9BQ51 20-273)
T1 chain: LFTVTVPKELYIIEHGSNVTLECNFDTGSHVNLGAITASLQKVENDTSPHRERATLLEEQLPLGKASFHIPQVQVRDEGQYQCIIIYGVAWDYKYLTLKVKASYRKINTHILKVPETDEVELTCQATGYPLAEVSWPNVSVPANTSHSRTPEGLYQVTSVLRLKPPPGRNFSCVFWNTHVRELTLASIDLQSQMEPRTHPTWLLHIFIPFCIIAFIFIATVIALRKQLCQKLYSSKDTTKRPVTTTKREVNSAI
Assay: FACS binding to CHO-K1 cells expressing human PD-L2
PROPERTY_MEASURED: pEC50
pEC50 here: minus log base 10 of the concentration, concentration in moles per litre.

• 10D1-G1 (antibody, V domains shown, Both formats under this entry) VH: QVQLQESGPGLVKPSGTLSLTCAVSGGSISSSYWWSWVRQPPGKGLEWIGEIFHIGSTNYNPSLRSRVTISVVKSKNQFSLNLNSVTAADTAVYFCARVSGGYGYFSGMDVWGQGTTVTVSS VL: DIQMTQSPSSLSASVGDRVTITCRASQGIRNDLGWYQQKPGKAPKRLIYGASSLQSGVPSRFSGSGSGTEFTLTISSLQPEDFATYYCLQHNSYPRTFGQGTKVEIK = 9.42
• 8B5-B1 (antibody, V domains shown, Both formats under this entry) VH: EVQLLESGGGLVQPGGSLKLSCAASGFTFSSYAMFWVRQAPGEGLAWVSAITGSGDHTYYADSVKDHFTISRDNSKNTLYLQMNSLKAEDTAVYYCAKDASGNSYGFPYWYFDLWGRGTLVTVSS VL: QSALTQPASVSGSPGQSITISCTGTSSDVAGYNFVSWYQHHPGKTPKLMIYDVTNRPSGVSTRFSGSKSGNTASLTISGLQAEDEADYYCSSFTSATTLVFGGGTKLTVLG = 8.96

Field: next binder
response.value for 1A1-C2 (antibody, V domains shown) VH: QVQLQESGPGLVKPSGTLSLTCAVSGGSIGSSYWWTWIRQSPGKGLEWIGEIFHSGPTNYTPSLKSRVTISVDKSKNQFSLQLRSVTAADTAVYYCARTTGTTGFYYGMDVWGQGTTVTVSS VL: EVVLTQSPATLYVTPGERVTLSCRASQSVSSNLAWYQQKPGQAPRLLIYGASTRATGIPARFSGSGSGTEFTLTISSLQSEDFAVYYCQQFNNWPRTFGLGTKVEIT (field: pEC50) = 9.21
